Molecular target: protein-protein interaction between SOS1 and KRAS-G12D (Homo sapiens, UniProt Q07889)
Construct: The purified GST-SOS1 catalytic domain (residues 564-1049) was first diluted in assay buffer; made in house; host or cells: E. coli BL21 (DE3) for SOS1; E. coli BL21 carrying a BirA plasmid for KRAS-G12D
Sequence (Q07889 564-1049): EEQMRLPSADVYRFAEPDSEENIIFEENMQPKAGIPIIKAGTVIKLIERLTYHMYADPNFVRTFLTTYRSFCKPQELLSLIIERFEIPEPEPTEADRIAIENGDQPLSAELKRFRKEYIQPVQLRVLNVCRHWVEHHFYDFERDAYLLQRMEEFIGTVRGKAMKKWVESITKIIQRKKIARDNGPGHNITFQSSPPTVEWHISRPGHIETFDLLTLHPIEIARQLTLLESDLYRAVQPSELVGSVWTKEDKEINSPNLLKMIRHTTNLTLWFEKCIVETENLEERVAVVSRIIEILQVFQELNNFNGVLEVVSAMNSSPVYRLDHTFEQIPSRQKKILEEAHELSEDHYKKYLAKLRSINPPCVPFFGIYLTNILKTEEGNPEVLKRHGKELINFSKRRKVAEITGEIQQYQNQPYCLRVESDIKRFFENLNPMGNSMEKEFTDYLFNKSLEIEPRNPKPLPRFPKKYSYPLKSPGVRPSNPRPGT
Assay: HTRF Based Protein-Protein Interaction Assay
Type: binding
Conditions: HTRF; GST-SOS1 2.5 nM, KRAS-G12D 100 nM, GDP 10 uM; read-out: IC50 value, inhibition of SOS1/KRAS-G12D protein-protein interaction
Description: A KRAS-G12D and SOS1 binding/interaction assay was designed to measure the interaction between KRAS-G12D and SOS1 proteins. Utilizing HTRF (Homogeneous Time-Resolved Fluorescence) technology, the assay enabled simple and rapid characterization of compound and protein interaction in a high throughput format. This assay was used to examine potency of the compounds in inhibiting the protein-protein interaction between SOS1 and KRAS-G12D. […]
pIC50: −log10 of the molar value.
experimental.readout: pIC50

Dear colleague, could you send me pIC50 for each of the items below? Thanks.
1. C#C[C@@H](Nc1nc(C)nc2cc(=O)n(C3(C(F)F)CC3)cc12)c1cccc(C(C)(F)F)c1F
2. C#C[C@@H](Nc1nc(C)nc2c(F)c(=O)n(C3(C(F)F)CC3)cc12)c1cccc(C(F)F)c1F
3. C#C[C@@H](Nc1nc(C)nc2cc(=O)n(C3(C)CC3)cc12)c1cccc(C(F)(F)F)c1C
4. C#C[C@@H](Nc1nc(C)nc2cc(=O)n(C3(C)CC3)cc12)c1cccc2c1CCC2(F)F

Reply:
> 7.00
> 7.00
> 7.00
> 7.00

Dear colleague, could you send me pIC50 for each of the items below? Thanks.
1. [2H]C([2H])([2H])n1c(=O)c(C2(O)CCN(C(C)=O)CC2)cc2c(N[C@H](C#C)c3cccc(C(F)(F)F)c3C)nc(C)nc21
2. C#C[C@@H](Nc1nc(C)nc2cc(=O)n(C3CC4(CNC4)C3)cc12)c1cccc(C(F)F)c1C
3. C#C[C@@H](Nc1ncnc2c1cc(C1(O)CCN(C(C)=O)C1)c(=O)n2C)c1cccc(C(F)F)c1F (stereo partly shown)

Reply:
6.70 to 7.00
> 7.00
6.70 to 7.00
